Biological target: 17β-hydroxysteroid dehydrogenase type 1 (17β-HSD1) (Homo sapiens, UniProt P14061)
Construct: from tissue; host or cells: human term placenta, cytosol
Sequence (P14061 whole entry): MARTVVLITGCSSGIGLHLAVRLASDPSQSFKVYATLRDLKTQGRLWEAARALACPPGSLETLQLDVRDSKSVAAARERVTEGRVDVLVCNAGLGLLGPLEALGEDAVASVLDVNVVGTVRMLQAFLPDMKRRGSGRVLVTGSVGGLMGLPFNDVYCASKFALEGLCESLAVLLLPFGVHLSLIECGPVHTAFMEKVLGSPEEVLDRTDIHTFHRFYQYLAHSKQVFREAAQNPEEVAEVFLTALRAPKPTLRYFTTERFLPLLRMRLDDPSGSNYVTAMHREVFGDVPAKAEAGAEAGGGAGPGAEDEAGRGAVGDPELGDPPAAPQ
Assay: 17β-HSD1 in vitro radiosubstrate incubation (estrone to 17β-estradiol conversion)
Assay type: biochemical
What pIC50 was measured for each of the following?
Convention used: pIC50 is expressed as -log10 of the molar concentration.

Ask: Look up and state reported pIC50 for "CCOP(=O)(OCC)c1cc2c(cc1O)CC[C@@H]1[C@@H]2CC[C@@]2(C)C(=O)CC[C@@H]12"
Result: 5.82

Ask: Fill in reported pIC50 for this entry: "COc1cc2c(cc1P(=O)(c1ccccc1)c1ccccc1)[C@H]1CC[C@@]3(C)C(=O)CC[C@H]3[C@@H]1CC2"
Result: 5.39

Data origin: paper PMC6244214
